biological target: α1; experiment: Receptor binding, [3H]-Prazosin; settings: read-out: IC50 for D01; α1
pIC50: −log10 of the molar value.
OBSERVED PROPERTY: pIC50

Exam item: Which pIC50 reading was recorded for the compound CC(CN(C)C)C(Oc1cccc2ccccc12)c1cccs1 (stereo not shown) [Compound D01] ?
Marked response: < 5.00

The reported numbers originate from paper PMC10935023.
